# reported pIC50; entries follow
# System: MOLM 13
# EXPERIMENTAL_DETAILS: Cell viability (CellTiter-Glo), 6-day compound treatment
# Format: cell-based, Human
# STUDY_CONDITIONS: Homo sapiens, MOLM-13, 144 h, read-out: MOLM 13 Viability 6 d IC50
pIC50: −log10 of the molar value.

Look up pIC50 of CN[C@@H](C)C(=O)N[C@H]1CCS[C@H]2CC(C)(C)[C@@H](C(=O)N[C@H]3c4ccccc4C[C@H]3OCC#Cc3cccc(C#CCO[C@@H]4Cc5ccccc5[C@@H]4NC(=O)[C@H]4N5C(=O)[C@@H](NC(=O)[C@H](C)NC)CCS[C@H]5CC4(C)C)c3)N2C1=O [Compound 18d] and report it.
6.00 to 7.00

Further cases:
Answer with reported pIC50 of CN[C@@H](C)C(=O)N[C@H]1CCS[C@H]2CC(C)(C)[C@@H](C(=O)N[C@H]3c4ccccc4C[C@H]3OCCCCCCO[C@@H]3Cc4ccccc4[C@@H]3NC(=O)[C@H]3N4C(=O)[C@@H](NC(=O)[C@H](C)NC)CCS[C@H]4CC3(C)C)N2C1=O [Compound 18b]
6.00 to 7.00

----------
# EXPERIMENTAL_DETAILS: Cell viability (CellTiter-Glo), 6-day compound treatment
# Assay type: cell-based, Human
# STUDY_CONDITIONS: human, HFF cells, 6 d, read-out: Cell viability at max. concentration
# Method: The compound 18a was tested in 16 different cell lines. For 6-day compound treatment 1700 cells per well were plated in a 384-well plate (Corning #781098) and incubated overnight at 37° C./5% CO2. […] Afterwards, 20 μL CellTiter-Glo reagent (Promega, #G7570) was added to each well outside of the incubator and the plates were read for luminescence on a Spark® multimode microplate reader (Tecan). […]
VALUE_TYPE: viability at 6 d

Identify measured viability at 6 d associated with CN[C@@H](C)C(=O)N[C@H]1CCS[C@H]2CC(C)(C)[C@@H](C(=O)N[C@H]3c4ccccc4C[C@H]3OCC#CC#CCO[C@@H]3Cc4ccccc4[C@@H]3NC(=O)[C@H]3N4C(=O)[C@@H](NC(=O)[C@H](C)NC)CCS[C@H]4CC3(C)C)N2C1=O [Compound 18a]
< 100%

----------
# TARGET: BIR3 domain of cIAP1 (Homo sapiens)
# Sequence (Q13490 253-363 limits assumed): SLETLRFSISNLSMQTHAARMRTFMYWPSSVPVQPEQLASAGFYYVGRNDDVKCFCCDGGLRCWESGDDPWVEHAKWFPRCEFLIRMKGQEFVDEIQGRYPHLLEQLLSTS
# EXPERIMENTAL_DETAILS: Fluorescence polarization assay
# STUDY_CONDITIONS: SMAC-FITC probe, Ki calculated from IC50
pKi: −log10 of the molar value.
VALUE_TYPE: pKi

Using known records, supply pKi for CN[C@@H](C)C(=O)N[C@H]1CCS[C@H]2CC(C)(C)[C@@H](C(=O)N[C@H]3c4ccccc4C[C@H]3OCC#CC#CCO[C@@H]3Cc4ccccc4[C@@H]3NC(=O)[C@H]3N4C(=O)[C@@H](NC(=O)[C@H](C)NC)CCS[C@H]4CC3(C)C)N2C1=O [Compound 18a]
≥ 7.30

More entries:
Given CN[C@@H](C)C(=O)N[C@H]1CCS[C@H]2CC(C)(C)[C@@H](C(=O)N[C@H]3c4ccccc4C[C@H]3OCc3ccc(-c4ccc(CO[C@@H]5Cc6ccccc6[C@@H]5NC(=O)[C@H]5N6C(=O)[C@@H](NC(=O)[C@H](C)NC)CCS[C@H]6CC5(C)C)cc4)cc3)N2C1=O [Compound 18f] , respond with its pKi.
7.00 to 7.30

----------
# TARGET: BIR3 domain of cIAP2 (Homo sapiens, UniProt Q13489)
# Sequence (Q13489 238-349 limits assumed): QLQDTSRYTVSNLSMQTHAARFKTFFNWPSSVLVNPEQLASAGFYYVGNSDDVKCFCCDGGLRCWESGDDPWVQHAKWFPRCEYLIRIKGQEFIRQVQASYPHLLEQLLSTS
# EXPERIMENTAL_DETAILS: Fluorescence polarization assay
# STUDY_CONDITIONS: SMAC-FITC probe, Ki calculated from IC50
VALUE_TYPE: Ki

Identify the reported Ki for the following entry. CN[C@@H](C)C(=O)N[C@H]1CCO[C@H]2CC(C)(C)[C@@H](C(=O)N[C@H]3c4ccccc4C[C@H]3OCC#CC#CCO[C@@H]3Cc4ccccc4[C@@H]3NC(=O)[C@H]3N4C(=O)[C@@H](NC(=O)[C@H](C)NC)CCO[C@H]4CC3(C)C)N2C1=O [Compound 18q]
50 to 100 nM

Attention now turns to another entry.
Report Ki, nothing else, for this compound: CN[C@@H](C)C(=O)N[C@H]1CCS[C@H]2CC(C)(C)[C@@H](C(=O)N[C@H]3c4ccccc4C[C@H]3OCc3ccc(CO[C@@H]4Cc5ccccc5[C@@H]4NC(=O)[C@H]4N5C(=O)[C@@H](NC(=O)[C@H](C)NC)CCS[C@H]5CC4(C)C)cc3)N2C1=O [Compound 18g]
50 to 100 nM

----------
# EXPERIMENTAL_DETAILS: Pharmacokinetic study in mice, snapshot PK
# Type: in vivo
# STUDY_CONDITIONS: female, C57BL/6J, mouse, plasma, ip, one hour after i.p. injection of 10 mg/kg
VALUE_TYPE: concentration at 1 h (µM)
Number only, in µM; omit the unit.

Fill in reported concentration at 1 h for this entry: CN[C@@H](C)C(=O)N[C@H]1CCS[C@H]2CC(C)(C)[C@@H](C(=O)N[C@H]3c4ccccc4C[C@H]3OCC#CC#CCO[C@@H]3Cc4ccccc4[C@@H]3NC(=O)[C@H]3N4C(=O)[C@@H](NC(=O)[C@H](C)NC)CCS[C@H]4CC3(C)C)N2C1=O [Compound 18a]
3.52

More entries:
Indicate its recorded concentration at 1 h; the compound in question is CN[C@@H](C)C(=O)N[C@H]1CCS[C@H]2CC(C)(C)[C@@H](C(=O)N[C@H]3c4ccccc4C[C@H]3OCC#Cc3ccc(CO[C@@H]4Cc5ccccc5[C@@H]4NC(=O)[C@H]4N5C(=O)[C@@H](NC(=O)[C@H](C)NC)CCS[C@H]5CC4(C)C)cc3)N2C1=O [Compound 18e]
6.2

Tell me its concentration at 1 h given CN[C@@H](C)C(=O)N[C@H]1CCS[C@H]2CC(C)(C)[C@@H](C(=O)N[C@H]3c4ccccc4C[C@H]3OCC#Cc3ccc(C#CCO[C@@H]4Cc5ccccc5[C@@H]4NC(=O)[C@H]4N5C(=O)[C@@H](NC(=O)[C@H](C)NC)CCS[C@H]5CC4(C)C)cc3)N2C1=O [Compound 18c] as the entry.
1.31

Recall and state the measured concentration at 1 h for CN[C@@H](C)C(=O)N[C@H]1CCS[C@H]2CC(C)(C)[C@@H](C(=O)N[C@H](CCOCC#CC#CCOCC[C@@H](NC(=O)[C@H]3N4C(=O)[C@@H](NC(=O)[C@H](C)NC)CCS[C@H]4CC3(C)C)c3ccccc3)c3ccccc3)N2C1=O [Compound 18i] .
1.24

Entry CC[C@H](NC)C(=O)N[C@H]1CCS[C@H]2CC(C)(C)[C@@H](C(=O)N[C@H]3c4ccccc4C[C@H]3OCC#CC#CCO[C@@H]3Cc4ccccc4[C@@H]3NC(=O)[C@H]3N4C(=O)[C@@H](NC(=O)[C@H](CC)NC)CCS[C@H]4CC3(C)C)N2C1=O [Compound 18m] needs its concentration at 1 h filled in; supply it.
6.59

----------
# System: MOLM 13
# EXPERIMENTAL_DETAILS: Cell viability (CellTiter-Glo), 6-day compound treatment
# Format: cell-based, Human
# STUDY_CONDITIONS: Homo sapiens, MOLM-13, 144 h, read-out: MOLM 13 Viability 6 d IC50
# Procedure: The compound 18a was tested in 16 different cell lines. For 6-day compound treatment 1700 cells per well were plated in a 384-well plate (Corning #781098) and incubated overnight at 37° C./5% CO2. […] Afterwards, 20 μL CellTiter-Glo reagent (Promega, #G7570) was added to each well outside of the incubator and the plates were read for luminescence on a Spark® multimode microplate reader (Tecan). […]
pIC50: −log10 of the molar value.
VALUE_TYPE: pIC50

Enter measured pIC50, system MOLM 13, for the compound shown: CN[C@@H](C)C(=O)N[C@H]1CCS[C@H]2CC(C)(C)[C@@H](C(=O)N[C@H]3c4ccccc4C[C@H]3OCc3ccc(CO[C@@H]4Cc5ccccc5[C@@H]4NC(=O)[C@H]4N5C(=O)[C@@H](NC(=O)[C@H](C)NC)CCS[C@H]5CC4(C)C)cc3)N2C1=O [Compound 18g]
7.00 to 8.00

Give pIC50; test system MOLM 13; compound CNC(C)(C)C(=O)N[C@H]1CCS[C@H]2CC(C)(C)[C@@H](C(=O)N[C@H]3c4ccccc4C[C@H]3OCC#CC#CCO[C@@H]3Cc4ccccc4[C@@H]3NC(=O)[C@H]3N4C(=O)[C@@H](NC(=O)C(C)(C)NC)CCS[C@H]4CC3(C)C)N2C1=O [Compound 18k]
5.00 to 6.00

Write down the reported pIC50 (system: MOLM 13) of CN[C@@H](C)C(=O)N[C@H]1CCO[C@H]2CC(C)(C)[C@@H](C(=O)N[C@H]3c4ccccc4C[C@H]3OCC#CC#CCO[C@@H]3Cc4ccccc4[C@@H]3NC(=O)[C@H]3N4C(=O)[C@@H](NC(=O)[C@H](C)NC)CCO[C@H]4CC3(C)C)N2C1=O [Compound 18q]
7.00 to 8.00

***
Recall the reported pIC50 of CN[C@@H](C)C(=O)N[C@H]1CCS[C@H]2CC(C)(C)[C@@H](C(=O)N[C@H]3c4ccccc4C[C@H]3OCC#Cc3ccc(C#CCO[C@@H]4Cc5ccccc5[C@@H]4NC(=O)[C@H]4N5C(=O)[C@@H](NC(=O)[C@H](C)NC)CCS[C@H]5CC4(C)C)cc3)N2C1=O [Compound 18c] on MOLM 13 and write it down.
7.00 to 8.00

The reported measurements were obtained from patent US12678509B2.
